B1: TPR t1 (parent)
chain: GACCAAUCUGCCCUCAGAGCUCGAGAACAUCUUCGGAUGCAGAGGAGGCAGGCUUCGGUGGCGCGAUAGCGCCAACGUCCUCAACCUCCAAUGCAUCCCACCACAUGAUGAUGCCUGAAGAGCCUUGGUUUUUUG

Variants of: B1
Method notes: polymerase ribozyme fitness, log enrichment relative to wild type (log ratio); higher = more active; in vitro selection for triplet polymerase activity
Mark Satisfied for reported polymerase ribozyme fitness (log ratio) of -3 or greater; mark Not satisfied for anything smaller.

Previously resolved entries follow.
>>> df
          mutation_notation  assigned_label
0            U81A C82A C98U   Not satisfied
1      G47C U55G G63A C104U   Not satisfied
2  C4G C8G C53A U112G G120A       Satisfied
3      C11A G52C A74C A111C       Satisfied

Input: Quick check: does U81C G127C have polymerase ribozyme fitness (log ratio) greater than or equal to -3?
Output: Satisfied

Input: Decide: is the reported value of polymerase ribozyme fitness (log ratio) for G36C G61C equal to or greater than -3?
Output: Satisfied

Input: In plain terms: is recorded polymerase ribozyme fitness (log ratio) at least -3 for A29G C115A ?
Output: Satisfied

Input: Assess whether reported polymerase ribozyme fitness (log ratio) for U78C U130C sits at -3 or higher.
Output: Satisfied

Input: Quick check: does U38C A90C have polymerase ribozyme fitness (log ratio) greater than or equal to -3?
Output: Satisfied

FYI, the data here is from the RNAGym collection of RNA variant scans (doi:10.1073/pnas.2313332121).
